System: K. pneumoniae HNR828
Test method notes: Antibacterial activity, MIC by agar dilution
Format: cell-based
Protocol conditions: Klebsiella pneumoniae, clinically isolated strain, gram -
Measure: MIC (µg/mL)
# number only, unit µg/mL dropped from output

QUERY: Checklist item: MIC tested on K. pneumoniae HNR828, entry Cc1c(N2C[C@@H](N)C3(CC3)C2)c(F)c(N)c2c(=O)c(C(=O)O)cn(C3CC3)c12 [Example 10] , value?
RESULT: 3.13

QUERY: Now try Cc1c(N2CCC(C)(N)C2)c(F)c(N)c2c(=O)c(C(=O)O)cn(C3CC3)c12 (centres unmarked) [Example 18] .
RESULT: 6.25

QUERY: Now try Cc1c(N2C[C@@H](N)C(C)(C)C2)c(F)c(N)c2c(=O)c(C(=O)O)cn(C3CC3)c12 [Example 16] .
RESULT: 12.5

QUERY: Now try Cc1c(N2C[C@@H](N)[C@@H](C)C2)c(F)c(N)c2c(=O)c(C(=O)O)cn(C3CC3)c12 (relative stereo) [Example 14] .
RESULT: 3.13

QUERY: Now try Cc1c(N2CC[C@H](N)C2)c(F)c(N)c2c(=O)c(C(=O)O)cn(C3CC3)c12.Cl [Example 12] .
RESULT: 3.13

====

System: Male Hartley guinea pigs
Format: in vivo
Protocol conditions: 10 mg/kg i.v., UVA
Measure: phototoxicity, in words

Nc1c(F)c(N2CC[C@H](N)C2)cc2c1c(=O)c(C(=O)O)cn2C1CC1 [Reference Compound E]
no phototoxicity
Cc1c(N2CC[C@H](N)C2)c(F)cc2c(=O)c(C(=O)O)cn(C3CC3)c12 [Reference Compound F]
observed
Cc1c(N2C[C@@H](N)C3(CC3)C2)c(F)cc2c(=O)c(C(=O)O)cn(C3CC3)c12 [Reference Compound C]
no phototoxicity
Cl.Nc1c(F)c(N2C[C@@H](N)C3(CC3)C2)cc2c1c(=O)c(C(=O)O)cn2C1CC1 [Reference Compound B]
observed
